meta.source: PubChem BioAssay

# Lookup of reported cell count keyed by entry
- testSummary: inhibitors of TNFa-induced NFkB p65 translocation, primary screen, imaging, HUVEC, MLSMR starter and 10KST1 sets (AID 438);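 further: compound added about 3h40 before a 20 min TNFalpha stimulation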
- testContext: HUVEC TNFa-induced p65 nuclear translocation; measured here: nuclei count (cytotoxicity indicator), at 2.08 µM
reportedMetric: cell count

>>> result("COc1ccc(-c2cc(O)cc(O)c2)cc1")
397
>>> result("O=C(CN1CCN(c2ccccn2)CC1)N1c2ccccc2CCc2ccccc21")
568
>>> result("COc1nnc(-c2ccc(C)c(S(=O)(=O)NCCO)c2)c2ccccc12")
325
>>> result("CN(C(=O)c1ccccc1Cl)c1ccccc1")
611
>>> result("COc1ccc(S(=O)(=O)NCC(c2cccnc2)N2CCN(c3ccc(F)cc3)CC2)cc1C (configuration not stated)")
234
>>> result("CCCCC(=O)Nc1ccc(NC(=O)C2CC2)nc1")
558
>>> result("CSc1nc2ccccc2c(=O)n1N")
618
>>> result("CCOc1cc(-c2nc3ccccn3c2NCC2CCCO2)ccc1O (configuration not stated)")
406
>>> result("CCN(CC)c1ccc(-c2c(C#N)c(N)nc(OC)c2C#N)cc1")
426
>>> result("COc1ccc(-n2c(Cc3cccn3C)nnc2SCC(=O)Nc2ccc(Cl)cc2)cc1")
678
>>> result("Cc1cc(NC(=O)CCC(=O)N(CC(=O)NC2CCCC2)Cc2ccc(F)cc2)no1")
402
>>> result("CCn1c(=O)c2cc(S(=O)(=O)NCc3ccccc3)ccc2n(CC)c1=O")
404
